# STUDY SYSTEM: T1, human MSLN-FL-his protein (human, UniProt Q13421 296-580)
# T1 construct: made in HEK293E cells, purified on nickel column; also called hMSLN-FL-his; human MSLN full-length protein; not shown: His tag
# T1 sequence (Q13421 other isoform, or with tags, fused parts or gaps): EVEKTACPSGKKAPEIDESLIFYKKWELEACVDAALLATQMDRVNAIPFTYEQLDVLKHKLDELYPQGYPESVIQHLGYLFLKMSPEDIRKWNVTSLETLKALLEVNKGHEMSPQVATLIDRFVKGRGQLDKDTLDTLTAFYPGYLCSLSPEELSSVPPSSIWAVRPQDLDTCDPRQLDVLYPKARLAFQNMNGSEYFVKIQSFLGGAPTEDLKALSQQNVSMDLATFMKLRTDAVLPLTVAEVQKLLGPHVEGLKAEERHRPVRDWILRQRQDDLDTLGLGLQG
# RUN DESCRIPTION: competitive ELISA; row F2.58.8; also: test concentration or dose not given here
Reported competition rate values follow for various binders
PROPERTY NAME: competition rate

1. S009-F1.35.24 (antibody, human IgG1, kappa, V domains shown, human-murine chimeric antibody, human IgG1/kappa constant regions) VH: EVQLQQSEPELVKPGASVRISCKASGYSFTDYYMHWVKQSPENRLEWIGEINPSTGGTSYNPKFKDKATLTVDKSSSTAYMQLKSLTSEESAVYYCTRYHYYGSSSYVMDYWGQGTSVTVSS VL: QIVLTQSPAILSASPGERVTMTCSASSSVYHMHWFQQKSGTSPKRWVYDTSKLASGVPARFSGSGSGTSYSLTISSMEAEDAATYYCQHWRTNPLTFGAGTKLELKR; 100%
2. S009-F1.2.12 (antibody, human IgG1, kappa, V domains shown, human-murine chimeric antibody, human IgG1/kappa constant regions) VH: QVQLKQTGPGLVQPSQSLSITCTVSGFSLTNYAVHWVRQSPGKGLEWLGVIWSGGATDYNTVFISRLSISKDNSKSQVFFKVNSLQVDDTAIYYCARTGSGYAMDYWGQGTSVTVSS VL: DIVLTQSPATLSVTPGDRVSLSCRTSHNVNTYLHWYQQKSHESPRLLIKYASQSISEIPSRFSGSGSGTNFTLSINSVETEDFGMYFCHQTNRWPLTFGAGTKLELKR; 32%
3. S009-F1.56.1 (antibody, human IgG1, kappa, V domains shown, human-murine chimeric antibody, human IgG1/kappa constant regions) VH: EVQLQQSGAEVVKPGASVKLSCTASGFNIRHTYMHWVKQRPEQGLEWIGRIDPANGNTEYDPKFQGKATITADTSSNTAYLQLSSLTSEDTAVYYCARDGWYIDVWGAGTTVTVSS VL: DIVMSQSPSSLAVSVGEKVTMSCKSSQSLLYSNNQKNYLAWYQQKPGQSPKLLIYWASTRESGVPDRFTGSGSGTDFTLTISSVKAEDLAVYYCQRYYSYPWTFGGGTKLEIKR; 107%
4. S009-F2.47.1 (antibody, human IgG1, kappa, V domains shown, human-murine chimeric antibody, human IgG1/kappa constant regions) VH: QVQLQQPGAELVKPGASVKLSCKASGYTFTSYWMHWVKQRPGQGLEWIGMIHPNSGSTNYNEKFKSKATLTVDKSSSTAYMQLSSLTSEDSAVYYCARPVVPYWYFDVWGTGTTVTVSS VL: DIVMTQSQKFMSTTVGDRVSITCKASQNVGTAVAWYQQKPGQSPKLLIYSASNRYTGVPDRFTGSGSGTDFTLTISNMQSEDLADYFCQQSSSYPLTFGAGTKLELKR; 31%
5. S009-F2.13.3 (antibody, human IgG1, kappa, V domains shown, human-murine chimeric antibody, human IgG1/kappa constant regions) VH: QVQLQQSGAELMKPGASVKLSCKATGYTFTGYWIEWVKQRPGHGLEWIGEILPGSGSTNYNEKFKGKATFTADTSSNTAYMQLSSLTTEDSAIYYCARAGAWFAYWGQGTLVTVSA VL: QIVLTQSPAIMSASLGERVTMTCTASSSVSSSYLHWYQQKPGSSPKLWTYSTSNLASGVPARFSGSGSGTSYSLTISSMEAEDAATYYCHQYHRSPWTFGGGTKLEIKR; -86%
6. S009-F2.58.8 (antibody, human IgG1, kappa, V domains shown, human-murine chimeric antibody, human IgG1/kappa constant regions) VH: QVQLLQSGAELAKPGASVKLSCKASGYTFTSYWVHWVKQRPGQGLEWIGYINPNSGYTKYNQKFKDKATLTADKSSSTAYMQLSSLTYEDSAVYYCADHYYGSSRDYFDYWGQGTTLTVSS VL: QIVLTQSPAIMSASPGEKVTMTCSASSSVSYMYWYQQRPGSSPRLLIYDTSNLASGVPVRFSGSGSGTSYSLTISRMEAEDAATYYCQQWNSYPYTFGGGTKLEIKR; 111%
7. S009-F2.16.10 (antibody, human IgG1, kappa, V domains shown, human-murine chimeric antibody, human IgG1/kappa constant regions) VH: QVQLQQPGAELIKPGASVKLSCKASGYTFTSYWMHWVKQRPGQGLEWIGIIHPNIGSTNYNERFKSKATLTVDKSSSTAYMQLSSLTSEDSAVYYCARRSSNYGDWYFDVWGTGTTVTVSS VL: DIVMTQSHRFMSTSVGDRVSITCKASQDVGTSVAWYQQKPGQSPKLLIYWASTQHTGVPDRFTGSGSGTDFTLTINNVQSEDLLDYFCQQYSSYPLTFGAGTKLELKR; 18%
